The following compounds are listed with their measured Normal melting temperature values.
- setup conditions: Crystal; DTA
The figure you give is taken to be in °C; do not add the unit.

Record excerpt, results attached:
| compound | Normal melting temperature [°C] |
| --- | --- |
| CC(=O)Nc1ccc(O)cc1 | 170.2 |
| COc1cccc([C@@]2(O)CCCC[C@@H]2CN(C)C)c1.Cl [tramadol hydrochloride] | 184.1 |

// Normal melting temperature lookup, compound = CCC(=O)O[C@](Cc1ccccc1)(c1ccccc1)[C@H](C)CN(C)C.Cl [Dextropropoxyphene hydrochloride] , result: 168

// Normal melting temperature lookup, compound = CN[C@@H](C)[C@@H](O)c1ccccc1.Cl [Pseudoephedrine hydrochloride] , result: 185

Entry source: the NIST ThermoML archive (doi:10.1016/j.tca.2016.03.025)
